- measurement target: human NaV 1.4 (Homo sapiens, UniProt P35499)
- Construct: expressed in transfected cells; host or cells: CHO
- Sequence (P35499 whole entry): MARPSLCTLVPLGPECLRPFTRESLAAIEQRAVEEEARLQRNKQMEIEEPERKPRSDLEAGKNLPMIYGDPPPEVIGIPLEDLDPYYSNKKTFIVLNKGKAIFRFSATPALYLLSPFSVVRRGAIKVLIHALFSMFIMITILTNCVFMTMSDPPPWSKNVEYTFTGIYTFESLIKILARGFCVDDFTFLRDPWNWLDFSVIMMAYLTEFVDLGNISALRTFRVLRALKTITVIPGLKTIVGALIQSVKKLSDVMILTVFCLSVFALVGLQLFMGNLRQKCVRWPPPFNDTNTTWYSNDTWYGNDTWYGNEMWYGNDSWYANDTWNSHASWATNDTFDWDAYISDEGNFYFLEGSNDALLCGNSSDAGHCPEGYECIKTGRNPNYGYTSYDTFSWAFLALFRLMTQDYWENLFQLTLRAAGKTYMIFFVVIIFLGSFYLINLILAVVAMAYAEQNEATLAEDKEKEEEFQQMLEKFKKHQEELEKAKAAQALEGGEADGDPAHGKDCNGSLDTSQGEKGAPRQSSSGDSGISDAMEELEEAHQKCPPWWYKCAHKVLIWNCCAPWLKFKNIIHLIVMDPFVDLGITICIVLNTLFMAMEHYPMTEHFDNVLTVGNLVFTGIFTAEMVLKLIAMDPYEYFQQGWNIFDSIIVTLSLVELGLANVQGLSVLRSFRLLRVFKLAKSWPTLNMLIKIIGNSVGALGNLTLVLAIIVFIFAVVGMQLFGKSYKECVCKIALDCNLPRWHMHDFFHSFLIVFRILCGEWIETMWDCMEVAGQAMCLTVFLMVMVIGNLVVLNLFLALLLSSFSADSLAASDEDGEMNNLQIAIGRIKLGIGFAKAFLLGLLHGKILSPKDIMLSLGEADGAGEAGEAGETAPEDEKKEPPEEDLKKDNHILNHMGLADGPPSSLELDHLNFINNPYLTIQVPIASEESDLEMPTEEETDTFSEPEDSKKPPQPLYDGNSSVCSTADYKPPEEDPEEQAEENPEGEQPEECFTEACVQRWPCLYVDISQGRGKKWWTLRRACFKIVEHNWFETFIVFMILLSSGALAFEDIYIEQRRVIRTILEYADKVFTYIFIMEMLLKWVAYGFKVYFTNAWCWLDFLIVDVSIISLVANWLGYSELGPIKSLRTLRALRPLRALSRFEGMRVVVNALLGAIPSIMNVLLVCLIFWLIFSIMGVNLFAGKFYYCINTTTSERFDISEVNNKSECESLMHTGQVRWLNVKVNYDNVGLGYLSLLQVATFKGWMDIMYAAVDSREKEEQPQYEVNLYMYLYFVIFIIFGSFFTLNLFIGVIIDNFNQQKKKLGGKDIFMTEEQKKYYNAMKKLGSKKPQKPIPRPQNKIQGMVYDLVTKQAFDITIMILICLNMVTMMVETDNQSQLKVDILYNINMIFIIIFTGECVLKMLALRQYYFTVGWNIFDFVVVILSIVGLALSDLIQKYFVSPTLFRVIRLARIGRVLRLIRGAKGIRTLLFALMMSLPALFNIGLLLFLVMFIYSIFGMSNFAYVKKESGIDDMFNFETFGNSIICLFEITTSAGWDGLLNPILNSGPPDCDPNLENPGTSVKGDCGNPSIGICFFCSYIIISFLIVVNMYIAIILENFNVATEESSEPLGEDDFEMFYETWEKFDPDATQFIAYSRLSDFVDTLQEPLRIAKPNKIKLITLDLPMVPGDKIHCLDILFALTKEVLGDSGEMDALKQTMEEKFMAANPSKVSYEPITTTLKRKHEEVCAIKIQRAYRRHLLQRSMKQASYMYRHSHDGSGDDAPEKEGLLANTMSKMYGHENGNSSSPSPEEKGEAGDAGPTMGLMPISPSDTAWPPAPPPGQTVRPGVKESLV
- test method notes: Electrophysiology, IonWorks Barracuda, NaV channel block in CHO cells
- Type: cell-based
- assay conditions: IC50 TP2 (inactivated state), Nav1.4, CHO cells, 5 min exposure, ambient temperature
Structures can show the parent of a compound that is named as a salt.
In this section we review reported IC50 values for a set of compounds.
Express it in nM; write the number only.

Consider the following illustrative entries.
[
  {
    "compound": "COC(=O)[C@@H](c1ccc(-c2ccccc2)cc1)[C@H]1C=CCCN1 [EXAMPLE 1D, hydrochloride]",
    "measurement target": "human NaV 1.4 (Homo sapiens, UniProt P35499)",
    "quantity unit": "nM",
    "IC50": 1300
  },
  {
    "compound": "COC(=O)[C@H](c1ccc(-c2ccccc2)cc1)[C@@H]1C=CCCN1 (racemic) [EXAMPLE 1E]",
    "measurement target": "human NaV 1.4 (Homo sapiens, UniProt P35499)",
    "quantity unit": "nM",
    "IC50": 1200
  }
]

In the following, a different compound is considered.
Prompt line: Checklist item: IC50 tested on human NaV 1.4 (Homo sapiens, UniProt P35499), entry COC(=O)[C@H](c1ccc(-c2ccccc2)cc1)[C@@H]1C=CCCN1.Cl [EXAMPLE 1C, hydrochloride] , value?
Response line: 1500
